The reported measurements were obtained from patent US4385060A.

- Assay: Intact ester in blood and urine after oral administration to human volunteers
- Assay type: in vivo
- Protocol conditions: urine, read-out: ester present in urine
Listed compounds paired with reported dose excreted at 6 h
Value type: dose excreted at 6 h

- CC1(C)S[C@@H]2[C@H](NC(=O)C(C(=O)Oc3ccccc3)c3ccsc3)C(=O)N2[C@H]1C(=O)O (some centres unmarked) [phenyl, reference compound]: ~1%
- Cc1ccccc1OC(=O)C(C(=O)N[C@@H]1C(=O)N2[C@@H]1SC(C)(C)[C@@H]2C(=O)O)c1ccsc1 (some centres unmarked): ~2%
